Numbers sourced from patent US8299285B2.

protocolSummary: UV/vis spectroscopy of complexes 1-13
Type: physicochemical
conditionDescription: DMSO, 0.001 mmol concentration
Items are presented alongside their recorded λmax (nm), (higher wavelength absorption peak, lowest energy transition).
Expressed in nm, but write only the number.

Asked: Recall and state the measured λmax (nm), (higher wavelength absorption peak, lowest energy transition) for CNC1=NN=C(C)C(C)=NN=C(N/N=C/c2ccco2)[S][Zn][S]1 [Complex 4, Zn[ATSM/A-2-furaldehyde]] .
Given back: 455

Asked: Recall and state the measured λmax (nm), (higher wavelength absorption peak, lowest energy transition) for CNC1=NN=C(C)C(C)=NN=C(N/N=C/c2c(O)ccc3ccccc23)[S][Zn][S]1 [Complex 6, Zn[ATSM/A-2-hydroxynaphthaldehyde]] .
Given back: 460

Asked: Recall and state the measured λmax (nm), (higher wavelength absorption peak, lowest energy transition) for CNC1=NN=C(C)C(C)=NN=C(N/N=C/c2ccccc2)[S][Zn][S]1 [Complex 3, Zn[ATSM/A-benzaldehyde]] .
Given back: 451

Asked: Recall and state the measured λmax (nm), (higher wavelength absorption peak, lowest energy transition) for CNC1=NN=C(C)C(C)=NN=C(N/N=C/C=N/NC2=NN=C(C)C(C)=NN=C(NC)[S][Zn][S]2)[S][Zn][S]1 [Complex 11, Zn2[ATSM/A-glyoxal-ATSM/A]] .
Given back: 489

Continuing:
Asked: Recall and state the measured λmax (nm), (higher wavelength absorption peak, lowest energy transition) for CNC1=NN=C(C)C(C)=NN=C(N/N=C/c2cccc(/C=N/NC3=NN=C(C)C(C)=NN=C(NC)[S][Zn][S]3)c2)[S][Zn][S]1 [Complex 13, Zn2[ATSM/A-isopthalaldehyde-ZnATSM/A]] .
Given back: 457

Asked: Recall and state the measured λmax (nm), (higher wavelength absorption peak, lowest energy transition) for CNC1=NN=C(C)C(C)=NN=C(N/N=C/C(=O)c2ccccc2)[S][Zn][S]1 [Complex 9, Zn[ATSM/A-phenylglyoxal]] .
Given back: 474

Asked: Recall and state the measured λmax (nm), (higher wavelength absorption peak, lowest energy transition) for CNC1=NN=C(C)C(C)=NN=C(N/N=C/c2ccccc2O)[S][Zn][S]1 [Complex 5, Zn[ATSM/A-salicylaldehyde]] .
Given back: 455

###

Items are presented alongside their recorded UV/Vis Absorption λmax(2).
protocolSummary: UV/Vis absorption of Zn[BTSCs]
Format: physicochemical
conditionDescription: second UV/vis absorption
Experimental: UV/Vis and fluorescence spectra were measured with a Perkin Elmer Lamda 19 spectrometer and a Hitachi F-4500 fluorescence spectrophotometer respectively. The co-ordination of BTSCs to zinc produces an extended delocalised system. […] The following table gives the position of λmax for the fluorescence emission spectra and the second and third UV/vis Absorptions for a range of Zn[BTSCs]
Expressed in nm, but write only the number.

Asked: Recall and state the measured UV/Vis Absorption λmax(2) for CCNC1=N[N+]2=CC=[N+]3N=C(NCC)[S][Zn-2]23[S]1 [Zn[GTS(Et)]] .
Given back: 323

Continuing:
Asked: Recall and state the measured UV/Vis Absorption λmax(2) for CCNC1=N[N+]2=CC(c3ccccc3)=[N+]3N=C(NCC)[S][Zn-2]23[S]1 (stereo not shown) [Zn PGTS(Et), Zn [PGTS(Et)]] .
Given back: 331

Asked: Recall and state the measured UV/Vis Absorption λmax(2) for C1=[N+]2N=C(Nc3ccccc3)[S][Zn-2]23[S]C(Nc2ccccc2)=N[N+]3=C1 [Zn[GTS(Ph)]] .
Given back: 342

Asked: Recall and state the measured UV/Vis Absorption λmax(2) for CNC([S-])=NN=CC=NN=C([S-])NC.[Zn+2] [Zn[GTS(Me)]] .
Given back: 334
